Just for reference, paper PMC10786891 is where these values come from.

# study_target: T1, EsCas13d, nuclease-dead (Eubacterium siraeum, UniProt B0MS50, R295A;H300A;R849A;H854A)
# T1 sequence: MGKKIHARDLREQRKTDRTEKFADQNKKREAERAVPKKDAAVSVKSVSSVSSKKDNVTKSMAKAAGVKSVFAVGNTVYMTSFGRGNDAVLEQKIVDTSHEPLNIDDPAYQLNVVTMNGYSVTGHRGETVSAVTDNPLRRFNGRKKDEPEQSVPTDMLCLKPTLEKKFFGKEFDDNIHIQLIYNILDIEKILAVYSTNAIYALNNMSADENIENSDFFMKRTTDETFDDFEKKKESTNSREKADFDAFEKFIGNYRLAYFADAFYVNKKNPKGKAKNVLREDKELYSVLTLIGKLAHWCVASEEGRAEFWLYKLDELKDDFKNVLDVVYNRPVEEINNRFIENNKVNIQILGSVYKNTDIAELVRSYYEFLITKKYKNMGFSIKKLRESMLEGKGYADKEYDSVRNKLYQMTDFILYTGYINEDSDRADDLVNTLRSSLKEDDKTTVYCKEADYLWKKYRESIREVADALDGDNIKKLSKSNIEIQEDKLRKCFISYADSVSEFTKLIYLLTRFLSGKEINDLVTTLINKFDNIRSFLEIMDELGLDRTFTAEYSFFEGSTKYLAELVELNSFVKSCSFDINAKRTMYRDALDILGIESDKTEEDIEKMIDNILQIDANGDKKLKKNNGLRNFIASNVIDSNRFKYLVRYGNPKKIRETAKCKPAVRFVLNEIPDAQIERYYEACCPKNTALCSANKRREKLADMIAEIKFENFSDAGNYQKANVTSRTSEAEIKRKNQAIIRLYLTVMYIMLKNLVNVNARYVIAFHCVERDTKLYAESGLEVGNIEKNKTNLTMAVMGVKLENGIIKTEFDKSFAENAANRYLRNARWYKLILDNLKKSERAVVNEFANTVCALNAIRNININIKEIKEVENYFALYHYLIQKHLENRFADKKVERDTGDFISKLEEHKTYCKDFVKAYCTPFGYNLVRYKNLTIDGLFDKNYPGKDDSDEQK
# assay_notes: crRNA (strand 1, pre-loaded); Mg2+; 40 mM Tris-HCl pH 7.5, 150 mM NaCl, 6 mM MgCl2, 1 mM DTT, 0.1% Tween-20, 0.2 mg/ml BSA; 25 C; 10 min per concentration, then washed
# condition_notes: tags: His6-TwinStrep-SUMO cleaved; N-terminal SNAP kept (SNAP-Surface 488); label: 3' end held by stalled T7 RNA polymerase
observed_property: Kd (nM)

[
  {
    "binder": "target 1 G17A,U19G (mixed) RNA 1: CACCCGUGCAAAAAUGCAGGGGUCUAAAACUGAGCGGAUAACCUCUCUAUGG RNA 2: GGGAAUGGAUCCACAUCUACGAAUUCGUACCAGAAAGAGGUUAUCCGCUCACCGAGAUCGGAAGAGCACACGU",
    "test_value": 51
  },
  {
    "binder": "target 2 MT 5'PFS UUU 3'PFS CAU (mixed) RNA 1: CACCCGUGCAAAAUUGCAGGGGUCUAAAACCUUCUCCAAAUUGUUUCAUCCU RNA 2: GGGAAUGGAUCCACAUCUACGAAUUCUUUAGGAUGAAACAAUUUGGAGAAGCAUAGAUCGGAAGAGCACACGU",
    "test_value": 6.8
  },
  {
    "binder": "target 2 MT 5'PFS CUC 3'PFS CUA (mixed) RNA 1: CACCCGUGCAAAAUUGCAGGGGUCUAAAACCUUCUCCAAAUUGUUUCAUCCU RNA 2: GGGAAUGGAUCCACAUCUACGAAUUCCUCAGGAUGAAACAAUUUGGAGAAGCUAAGAUCGGAAGAGCACACGU",
    "test_value": 2.02
  },
  {
    "binder": "target 2 MT 5'PFS GUG 3'PFS CUC (mixed) RNA 1: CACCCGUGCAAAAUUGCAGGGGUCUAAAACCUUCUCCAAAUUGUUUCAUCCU RNA 2: GGGAAUGGAUCCACAUCUACGAAUUCGUGAGGAUGAAACAAUUUGGAGAAGCUCAGAUCGGAAGAGCACACGU",
    "test_value": 21.4
  }
]
